# Assayed system: T1, hRSV FTM- protein (membrane anchorless form of the fusion protein, 70 kDa) (human respiratory syncytial virus, UniProt P12568 26-524)
# T1 construct: extracellular domain
# Assay info: SPR (Biacore T100), FTM- amine-coupled on CM5 chip, 1:1 Langmuir fit
Readout name: koff (s⁻¹)
The answer is to be given in s⁻¹; state only the numeric part.

- Binder: "LG192C10 (VHH) VHH: EVQLVESGGGLVQAGGSLRLSCAASEGYFRNYMVGWFRQAPGGERMFVAAISDTAYYADSVKGRFTISRDNAKNTVYLPMNSLKPEDTAVYYCAAAPKSWGTWPLVADTRSYHFWGQGTQVTVSS"
  Endpoint result: 0.000613
- Binder: "LG192H1 (VHH) VHH: EVQLVESGGGLVQAGGSLRLSCAASGIIFSTNHMGWYRRAPGKQRELVGTINRGDSPYYADSVKGRFTISRDNAKNMVYLQMNSLKPEDTAVYYCNAGYIYWGQGTQVTVSS"
  Endpoint result: 0.00611

Noted for LG192C4 (VHH) VHH: EVQLVESGGGLVQAGGSLRLSCEASGRTFSSYAMVGWFRQAPGKEREFVAAVTRWSGARTVYADSVKGRFTISRDNAENTVYLQMNSLKPEDTAVYTCAADSTNRNSGAVYYSWAYDYWGQGTQVTVSS : its koff reads 0.00846
